Molecular target: 3-hydroxy-3-methylglutaryl-coenzyme A reductase (Rattus norvegicus) (UniProt P51639)
Test: In vitro rat HMG-CoA reductase inhibitory activity required to inhibit sterol synthesis in cell free system with pravastatin as reference compound
Assay Readout: Relative potency
The response must contain the number and no unit.

Consider the following illustrative entries.
[[record]]
smiles_text = "Cc1nn2c(-c3ccc(F)cc3)c(/C=C/[C@@H](O)C[C@@H](O)CC(=O)O)c(C3CC3)nc2c1-c1ccccc1"
experimental_system = "3-hydroxy-3-methylglutaryl-coenzyme A reductase (Rattus norvegicus) (UniProt P51639)"
assay_readout = "Relative potency"
result_number = 64

[[record]]
smiles_text = "Cc1nn(C)c2nc(C(C)C)c(/C=C/[C@@H](O)C[C@@H](O)CC(=O)O)c(-c3ccc(F)cc3)c12"
experimental_system = "3-hydroxy-3-methylglutaryl-coenzyme A reductase (Rattus norvegicus) (UniProt P51639)"
assay_readout = "Relative potency"
result_number = 71


Prompt line: Give the reported Relative potency for `Cc1nn(Cc2ccccc2)c2nc(C(C)C)c(/C=C/[C@@H](O)C[C@@H](O)CC(=O)O)c(-c3ccc(F)cc3)c12` (system: 3-hydroxy-3-methylglutaryl-coenzyme A reductase (Rattus norvegicus) (UniProt P51639)).
Response line: 63

* * *

Target: 3-hydroxy-3-methylglutaryl-coenzyme A reductase (Rattus norvegicus) (UniProt P51639)
Sequence (whole entry): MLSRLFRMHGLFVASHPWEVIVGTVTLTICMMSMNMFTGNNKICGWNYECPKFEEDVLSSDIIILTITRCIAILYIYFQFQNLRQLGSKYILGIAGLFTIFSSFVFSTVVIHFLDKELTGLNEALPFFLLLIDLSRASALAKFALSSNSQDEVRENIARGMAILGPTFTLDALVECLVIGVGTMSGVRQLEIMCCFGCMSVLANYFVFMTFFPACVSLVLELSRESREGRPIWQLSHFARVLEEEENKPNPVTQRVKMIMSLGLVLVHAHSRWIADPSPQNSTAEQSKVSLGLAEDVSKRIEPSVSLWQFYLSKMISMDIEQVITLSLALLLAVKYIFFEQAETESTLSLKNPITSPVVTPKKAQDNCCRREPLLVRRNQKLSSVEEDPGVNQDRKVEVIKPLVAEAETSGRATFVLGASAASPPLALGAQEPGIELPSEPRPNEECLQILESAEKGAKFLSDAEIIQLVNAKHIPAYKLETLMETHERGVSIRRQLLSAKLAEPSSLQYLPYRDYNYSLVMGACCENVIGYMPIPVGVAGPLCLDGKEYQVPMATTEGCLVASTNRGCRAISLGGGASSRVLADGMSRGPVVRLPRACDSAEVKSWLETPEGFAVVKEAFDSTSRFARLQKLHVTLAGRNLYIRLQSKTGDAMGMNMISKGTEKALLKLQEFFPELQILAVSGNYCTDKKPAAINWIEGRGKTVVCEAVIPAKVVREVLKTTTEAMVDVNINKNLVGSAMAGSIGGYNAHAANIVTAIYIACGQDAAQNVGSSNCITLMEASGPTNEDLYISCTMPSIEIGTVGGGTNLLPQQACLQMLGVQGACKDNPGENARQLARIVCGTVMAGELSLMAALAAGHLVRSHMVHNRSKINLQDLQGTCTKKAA
Assay: In vivo hepatic cholesterol synthesis inhibitory activity in male Sprague-Dawley rat after oral administration at a concentration of 2.0 mg/kg
Assay type: functional, organism-based
Set-up: dose 2 mg/kg
Assay Readout: inhibition (%)
API: value field is a number in %; no unit string.

[[record]]
molecule = "CC(C)c1nc2onc(-c3ccccc3)c2c(-c2ccc(F)cc2)c1/C=C/[C@@H](O)C[C@@H](O)CC(=O)O"
unit_abbrev = "%"
result_number = 52.3

[[record]]
molecule = "CC(C)c1nc2cc(-c3ccccc3)nn2c(-c2ccc(F)cc2)c1/C=C/[C@@H](O)C[C@@H](O)CC(=O)O"
unit_abbrev = "%"
result_number = 24.1

[[record]]
molecule = "CC(C)c1nc2c(c(-c3ccccc3)nn2C)c(-c2ccc(F)cc2)c1/C=C/[C@@H](O)C[C@@H](O)CC(=O)O"
unit_abbrev = "%"
result_number = 71.1

[[record]]
molecule = "Cc1nn(C(C)(C)C)c2nc(C3CC3)c(/C=C/[C@@H](O)C[C@@H](O)CC(=O)O)c(-c3ccc(F)cc3)c12"
unit_abbrev = "%"
result_number = 72.2

[[record]]
molecule = "CCc1c(C)sc2nc(C(C)C)c(/C=C/[C@@H](O)C[C@@H](O)CC(=O)O)c(-c3ccc(F)cc3)c12"
unit_abbrev = "%"
result_number = 20.8


Prompt line: Please look up its inhibition: `Cc1nn(-c2ccccc2)c2nc(C(C)C)c(/C=C/[C@@H](O)C[C@@H](O)CC(=O)O)c(-c3ccc(F)cc3)c12`
Response line: 19.9

Prompt line: What does the record list as inhibition for `Cn1nc(-c2ccccc2)c2c(-c3ccc(F)cc3)c(/C=C/[C@@H](O)C[C@@H](O)CC(=O)O)c(C3CC3)nc21` ?
Response line: 11.5

Prompt line: Can you look up the measured inhibition of `Cc1cc2c(-c3ccc(F)cc3)c(/C=C/[C@@H](O)C[C@@H](O)CC(=O)O)c(C(C)C)nc2s1` for me?
Response line: 34.2

Prompt line: What does the data say about its inhibition? Entry: `Cc1nn(C(C)(C)C)c2nc(C(C)C)c(/C=C/[C@@H](O)C[C@@H](O)CC(=O)O)c(-c3ccc(F)cc3)c12`
Response line: 86

Prompt line: Fill blank: measured inhibition of the molecule `O=C(O)C[C@H](O)C[C@H](O)/C=C/c1c(C2CC2)nc2sccc2c1-c1ccc(F)cc1` is ____.
Response line: 70.6

Prompt line: Entry CC[C@H](C)C(=O)O[C@H]1C[C@H](O)C=C2C=C[C@H](C)[C@H](CC[C@@H](O)C[C@@H](O)CC(=O)O)[C@H]21 [PRAVASTATIN SODIUM] : reported inhibition = ?
Response line: 27.8

Prompt line: Request the reported inhibition associated with `CC(C)c1nc2c(c(C3CC3)nn2C)c(-c2ccc(F)cc2)c1/C=C/[C@@H](O)C[C@@H](O)CC(=O)O`
Response line: 71.3

Prompt line: Any idea what inhibition was measured for `Cc1nn(Cc2ccccc2)c2nc(C(C)C)c(/C=C/[C@@H](O)C[C@@H](O)CC(=O)O)c(-c3ccc(F)cc3)c12` ?
Response line: 45.1

Prompt line: Form field: reported inhibition of `COc1ccc(-n2nc(C)c3c(-c4ccc(F)cc4)c(/C=C/[C@@H](O)C[C@@H](O)CC(=O)O)c(C(C)C)nc32)cc1`
Response line: 48.7

Prompt line: Entry `Cc1nn(C)c2nc(C(C)C)c(/C=C/[C@@H](O)C[C@@H](O)CC(=O)O)c(-c3ccc(F)cc3)c12` : reported inhibition = ?
Response line: 48.1

Prompt line: inhibition for `Cc1cc2nc(C3CC3)c(/C=C/[C@@H](O)C[C@@H](O)CC(=O)O)c(-c3ccc(F)cc3)n2n1` ?
Response line: 6.5

Prompt line: Which measured inhibition value corresponds to `Cc1nn(C)c2nc(C3CC3)c(/C=C/[C@@H](O)C[C@@H](O)CC(=O)O)c(-c3ccc(F)cc3)c12` ?
Response line: 74.3

Each recorded value in this set is attributed to ChEMBL document CHEMBL1134061.
